assay: blood levels upon intramuscular administration to mice; type: in vivo; conditions: mouse, im, 20 mg/kg
readout_label: Cmax (ng/mL)
Answers are plain numbers, in ng/mL.

compound: CON=C(C(=O)NC1C(=O)N2C(C(=O)[O-])=C(/C=C/C[n+]3ccc(C(N)=O)cc3)CSC12)c1nsc(N)n1 (stereo not drawn)
measurement_units: ng/mL
Cmax: 23000

Consider the following items and state reported Cmax for each.
1. CNC(=O)c1cc[n+](C/C=C/C2=C(C(=O)[O-])N3C(=O)C(NC(=O)/C(=N\OC)c4nsc(N)n4)C3SC2)cc1 (stereo not drawn)
2. CON=C(C(=O)NC1C(=O)N2C(C(=O)[O-])=C(/C=C/C[n+]3cccc(CO)c3)CSC12)c1nsc(N)n1 (stereo not drawn)
3. CON=C(C(=O)NC1C(=O)N2C(C(=O)[O-])=C(C=CC[N+](C)(C)C)CS[C@H]12)c1nsc(N)n1 (stereo partly drawn)

1: 20000; 2: 24000; 3: 20000
